- Target desc: GTPase KRas (Homo sapiens, UniProt P01116, G12V)
- Method description: Inhibition of alexa fluor 647-labeled kinase tracer 314 binding to biotinylated-KRAS G12V mutant (unknown origin) measured after 60 mins by HTRF competition binding assay
- Test parameters: read-out: IC50
Quantity measured: IC50

Here's what some known entries look like.
Chemical structure: CC(C)C[C@H](NC(=O)[C@@H]1COCc2cnnn2CCCC(=O)NCC(=O)N2CCC[C@H]2C(=O)N[C@@H](Cc2cccc3ccccc23)C(=O)N1)C(N)=O
Target desc: GTPase KRas (Homo sapiens, UniProt P01116, G12V)
IC50: 10 µM
//
Chemical structure: CC(=O)N[C@@H](Cc1cccc2ccccc12)C(=O)N[C@@H](COCc1cnnn1CCCCC(=O)NCC(N)=O)C(=O)N[C@@H](CC(C)C)C(N)=O
Target desc: GTPase KRas (Homo sapiens, UniProt P01116, G12V)
IC50: 38 µM
//
Chemical structure: CC[C@H](C)[C@@H]1NC(=O)[C@@H]2CCCN2C(=O)[C@H](Cc2ccccc2)NC(=O)CCCc2cn(nn2)CC[C@@H](C(=O)N[C@@H](CC(C)C)C(N)=O)NC1=O
Target desc: GTPase KRas (Homo sapiens, UniProt P01116, G12V)
IC50: > 100 µM

For every item below, please supply its IC50.
1. CC(C)C[C@H](NC(=O)[C@H]1CSCc2cnnn2CCCCC(=O)NCC(=O)N2CCC[C@H]2C(=O)N[C@@H](Cc2cccc3ccccc23)C(=O)N1)C(N)=O
2. NC(=O)[C@@H](NC(=O)[C@@H]1COCc2cnnn2CCCCC(=O)NCC(=O)N2CCC[C@H]2C(=O)N[C@@H](Cc2cccc3ccccc23)C(=O)N1)C1CCCCC1
3. CC(=O)N[C@@H](CC(=O)O)C(=O)N[C@H]1CCCn2nncc2COC[C@H](C(=O)N[C@@H](CC(C)C)C(N)=O)NC(=O)[C@H](Cc2cccc3ccccc23)NC(=O)[C@@H]2CCCN2C(=O)CNC1=O
4. CC(C)C[C@H](NC(=O)[C@@H]1COCc2cnnn2CCCCC(=O)NCC(=O)N2CCC[C@H]2C(=O)N[C@H](Cc2ccccc2)C(=O)N1)C(N)=O
5. CC[C@H](C)[C@@H]1NC(=O)[C@@H]2CCCN2C(=O)CNC(=O)CCCC#CC#CCOC[C@@H](C(=O)N[C@@H](CC(C)C)C(N)=O)NC1=O

11 µM
78 µM
38 µM
> 82 µM
> 100 µM

====

- Target desc: GTPase KRas (Homo sapiens, UniProt P01116, G12V)
- Method description: Inhibition of alexa fluor 647-labeled kinase tracer 314 binding to biotinylated-KRAS G12V mutant (unknown origin) measured after 60 mins by HTRF competition binding assay
- Test parameters: read-out: IC50
Quantity measured: IC50 (µM)
Answers are plain numbers, in µM.

Below are worked cases with known answers.
Chemical structure: CC(C)C[C@H](NC(=O)[C@@H]1COCc2cnnn2CC(=O)NCC(=O)N2CCC[C@H]2C(=O)N[C@@H](Cc2cccc3ccccc23)C(=O)N1)C(N)=O
IC50 [µM]: 9.6
--
Chemical structure: CC(C)C[C@H](NC(=O)[C@@H]1COCc2cnnn2CCCCC(=O)N[C@H](C)C(=O)N2CCC[C@H]2C(=O)N[C@@H](Cc2cccc3ccccc23)C(=O)N1)C(N)=O
IC50 [µM]: 25
--
Chemical structure: CC(=O)N[C@@H](CC(=O)O)C(=O)N[C@H]1CCCn2nncc2COC[C@@H](C(=O)N[C@@H](CC(C)C)C(=O)N[C@@H](C)C(=O)N2CCC[C@H]2C(N)=O)NC(=O)[C@H](Cc2cccc3ccccc23)NC(=O)[C@@H]2CCCN2C(=O)CNC1=O
IC50 [µM]: 40

I have 6 molecules here; please give me IC50 for each one.
1. CC(C)C[C@H](NC(=O)[C@@H]1COCc2cnnn2CCCCCC(=O)N2CCC[C@H]2C(=O)N[C@@H](Cc2cccc3ccccc23)C(=O)N1)C(N)=O
2. CC(C)C[C@H](NC(=O)[C@@H]1COCc2cnnn2CCCCC(=O)NCC(=O)N2CCCCC[C@H]2C(=O)N[C@@H](Cc2cccc3ccccc23)C(=O)N1)C(N)=O
3. CC(C)C[C@H](NC(=O)[C@@H]1COCc2cnnn2CCCCC(=O)NCC(=O)N(C)[C@@H](C(C)C)C(=O)N[C@@H](Cc2cccc3ccccc23)C(=O)N1)C(N)=O
4. CC(C)C[C@H](NC(=O)[C@@H]1COCc2cnnn2CCCCC(=O)NCC(=O)N2CCCC[C@H]2C(=O)N[C@@H](Cc2cccc3ccccc23)C(=O)N1)C(N)=O
5. NC(=O)CC[C@H](NC(=O)[C@@H]1COCc2cnnn2CCCCC(=O)NCC(=O)N2CCC[C@H]2C(=O)N[C@@H](Cc2cccc3ccccc23)C(=O)N1)C(N)=O
6. CC(C)C[C@H](CC(=O)[C@@H]1COCc2cnnn2CCCCC(=O)NCC(=O)N2CCC[C@H]2C(=O)C[C@@H](C)C(=O)C1)C(N)=O

12
55
100
7.7
50
91

====

- Target desc: GTPase KRas (Homo sapiens, UniProt P01116, G12V)
- Method description: Inhibition of alexa fluor 647-labeled kinase tracer 314 binding to biotinylated-KRAS G12V mutant (unknown origin) measured after 60 mins by HTRF competition binding assay
- Test parameters: read-out: IC50
pIC50: −log10 of the molar value.
Exercise: for every item that follows, state its recorded pIC50.

Example entries begin here.
Chemical structure: CC[C@H](C)[C@@H]1NC(=O)[C@@H]2CCCN2C(=O)[C@H](C)NC(=O)c2ccccc2/C=C/COC[C@@H](C(=O)N[C@@H](CC(C)C)C(N)=O)NC1=O
pIC50: < 4.00

Chemical structure: CC(C)C[C@H](NC(=O)[C@@H]1COCc2cnnn2CCCCC(=O)NCC(=O)N2CCC[C@H]2C(=O)N[C@@H](Cc2ccccc2)C(=O)N1)C(N)=O
pIC50: < 4.42

For record CC[C@H](C)[C@@H]1NC(=O)[C@@H]2CCCN2C(=O)[C@H](Cc2ccc(O)cc2)NC(=O)CCCCn2cc(nn2)COC[C@@H](C(=O)N[C@@H](CC(C)C)C(N)=O)NC1=O the listed pIC50 is < 4.00

====

- Target desc: GTPase KRas (Homo sapiens, UniProt P01116, G12V)
- Method description: Inhibition of alexa fluor 647-labeled kinase tracer 314 binding to biotinylated-KRAS G12V mutant (unknown origin) measured after 60 mins by HTRF competition binding assay
- Test parameters: read-out: IC50
pIC50: −log10 of the molar value.
Quantity measured: pIC50

Reference set (3 entries):
Chemical structure: CC[C@H](C)[C@@H]1NC(=O)[C@@H]2CCCN2C(=O)[C@H](Cc2ccc(O)cc2)NC(=O)CCCCn2cc(nn2)CSC[C@@H](C(=O)N[C@@H](CC(C)C)C(N)=O)NC1=O
Target desc: GTPase KRas (Homo sapiens, UniProt P01116, G12V)
Quantity measured: pIC50
Observed result: < 4.00
//
Chemical structure: CC(C)C[C@H](NC(=O)[C@@H]1COCc2cnnn2CCCCC(=O)NCC(=O)N2CCC[C@H]2C(=O)N[C@@H](Cc2ccccc2Cl)C(=O)N1)C(N)=O
Target desc: GTPase KRas (Homo sapiens, UniProt P01116, G12V)
Quantity measured: pIC50
Observed result: < 4.00
//
Chemical structure: CC[C@H](C)[C@@H]1NC(=O)[C@@H]2CCCN2C(=O)[C@H](C)NC(=O)CCCCn2nncc2COC[C@@H](C(=O)N[C@@H](CC(C)C)C(N)=O)NC1=O
Target desc: GTPase KRas (Homo sapiens, UniProt P01116, G12V)
Quantity measured: pIC50
Observed result: < 4.00

Kindly review the next compound as well.
Entry under test: CC(=O)N[C@@H](CCC(=O)O)C(=O)N[C@H]1CCCn2nncc2COC[C@@H](C(=O)N[C@@H](CC(C)C)C(=O)N[C@@H](C)C(=O)N2CCC[C@H]2C(N)=O)NC(=O)[C@H](Cc2cccc3ccccc23)NC(=O)[C@@H]2CCCN2C(=O)CNC1=O . Its pIC50 was < 4.08
